// data source = ChEMBL document CHEMBL3885861

# Species: Rattus norvegicus
# measurement.protocol: Open TG-GATES - Regimen: Single
# Assay type: toxicity, organism-based, Sprague-Dawley
# Set-up: regimen Single, gender Male, age 6 weeks
# condition.info: in vivo, po, 0 mg/kg, 3 h, tissue Plasma, route gavage, dose level Control
Kindly state LDH for each of the entries shown.
Answers are plain numbers, in IU/L.

Consider the reported LDH for these compounds:
compound	LDH / IU/L
CN(C)CCN(Cc1cccs1)c1ccccn1	227
CN(C)CCCN1c2ccccc2CCc2ccccc21 [IMIPRAMINE]	111
O=C(CCCN1CCC(O)(c2ccc(Cl)cc2)CC1)c1ccc(F)cc1 [HALOPERIDOL]	85
Cc1ccc(C)c(OCCCC(C)(C)C(=O)O)c1 [GEMFIBROZIL]	74

Respectfully, I request LDH for each entry included below.
1. C[C@@H]1C[C@H]2[C@@H]3CCC4=CC(=O)C=C[C@]4(C)[C@@]3(F)[C@@H](O)C[C@]2(C)[C@@]1(O)C(=O)CO [DEXAMETHASONE]
2. CCOc1ccc(NC(=O)CC(C)O)cc1 (configuration not stated) [BUCETIN]
3. CCOC(=O)CCC(=O)O[C@H]1[C@H](O[C@@H]2[C@@H](C)[C@H](O[C@H]3C[C@@](C)(OC)[C@@H](O)[C@H](C)O3)[C@@H](C)C(=O)O[C@H](CC)[C@@](C)(O)[C@H](O)[C@@H](C)C(=O)[C@H](C)C[C@@]2(C)O)O[C@H](C)C[C@@H]1N(C)C [ERYTHROMYCIN ETHYLSUCCINATE]

79.4
77.2
159.2

###

# Species on record: Rattus norvegicus
# measurement.protocol: Open TG-GATES - Regimen: Single
# Type: toxicity, organism-based, Sprague-Dawley
# Set-up: regimen Single, gender Male, age 6 weeks
# condition.info: in vivo, po, 0 mg/kg, 3 h, tissue Blood, route gavage, dose level Control
readout.name: Lym (%)
Give bare numbers, in %.

Completed entries (count: 8):
compound	unit.abbrev	measured.value
COc1cc2c(c(OC)c1OC)-c1ccc(OC)c(=O)cc1[C@@H](NC(C)=O)CC2	%	81.8
CC1=C(/C=C/C(C)=C/C=C/C(C)=C/CO)C(C)(C)CCC1	%	79.4
NC(N)=Nc1nc(CSCCC(N)=NS(N)(=O)=O)cs1	%	64.8
O=C(CCCN1CCC(O)(c2ccc(Cl)cc2)CC1)c1ccc(F)cc1	%	77.8
CN1C(=O)CN=C(c2ccccc2)c2cc(Cl)ccc21	%	71.2
COC1=CC(=O)C[C@@H](C)[C@]12Oc1c(Cl)c(OC)cc(OC)c1C2=O	%	76
CCOC(=O)CCC(=O)O[C@H]1[C@H](O[C@@H]2[C@@H](C)[C@H](O[C@H]3C[C@@](C)(OC)[C@@H](O)[C@H](C)O3)[C@@H](C)C(=O)O[C@H](CC)[C@@](C)(O)[C@H](O)[C@@H](C)C(=O)[C@H](C)C[C@@]2(C)O)O[C@H](C)C[C@@H]1N(C)C [ERYTHROMYCIN ETHYLSUCCINATE]	%	81.2
NNC(=O)c1ccncc1	%	80

Each compound below has a reported value. Please supply its Lym.
1. CCCNC(=O)NS(=O)(=O)c1ccc(Cl)cc1 [CHLORPROPAMIDE]
2. CCOc1ccc(NC(=O)CC(C)O)cc1 (configuration not stated)
3. COc1ccc2[nH]c([S+]([O-])Cc3ncc(C)c(OC)c3C)nc2c1 (configuration not stated)

1: 76.2; 2: 78.2; 3: 77.8

Provide the reported Lym of each entry below, same order.
1. CN(C)CCCN1c2ccccc2CCc2ccccc21
2. CN(C)CCN(Cc1cccs1)c1ccccn1

1. 79.2
2. 76.8

Give Lym for all compounds that follow.
1. CN(C)CCCN1c2ccccc2CCc2ccc(Cl)cc21
2. CC/C(=C(\c1ccccc1)c1ccc(OCCN(C)C)cc1)c1ccccc1
3. Cc1ccc(C)c(OCCCC(C)(C)C(=O)O)c1

[77.4, 76, 81.2]

Per the record, `C[C@@H]1C[C@H]2[C@@H]3CCC4=CC(=O)C=C[C@]4(C)[C@@]3(F)[C@@H](O)C[C@]2(C)[C@@]1(O)C(=O)CO` has Lym of 74.6

###

Answer each item with its documented Ht.
# Organism: Rattus norvegicus
# measurement.protocol: Open TG-GATES - Regimen: Single
# Assay type: toxicity, organism-based, Sprague-Dawley
# Set-up: regimen Single, gender Male, age 6 weeks
# condition.info: in vivo, po, 100 mg/kg, 6 h, tissue Blood, route gavage, dose level High
Give bare numbers, in %.

smiles.repr	Ht / %
CN(C)CCCN1c2ccccc2CCc2ccc(Cl)cc21	44
CN(C)CCN(Cc1cccs1)c1ccccn1	39.5

Return reported Ht values for all items listed beneath this line.
1. CN(C)CCCN1c2ccccc2CCc2ccccc21
2. CC1=C(/C=C/C(C)=C/C=C/C(C)=C/CO)C(C)(C)CCC1

1: 42.4; 2: 38.6

###

# Species on record: Rattus norvegicus
# measurement.protocol: Open TG-GATES - Regimen: Single
# Type: toxicity, organism-based, Sprague-Dawley
# Parameters: regimen Single, gender Male, age 6 weeks
# condition.info: in vivo, po, 30 mg/kg, 24 h, tissue Blood, route gavage, dose level Middle
readout.name: Ht (%)
Answers are plain numbers, in %.

Examples with answers:
smiles.repr	unit.abbrev	Ht
CN(C)CCCN1c2ccccc2CCc2ccccc21	%	41.7
CN(C)CCCN1c2ccccc2CCc2ccc(Cl)cc21	%	41.2
CN(C)CCN(Cc1cccs1)c1ccccn1	%	38.8

Then there is this molecule:
# Ht (molecule: `CC1=C(/C=C/C(C)=C/C=C/C(C)=C/CO)C(C)(C)CCC1` ) is 38.6

###

Assign LIVER to each entry below.
# Species on record: Rattus norvegicus
# measurement.protocol: Open TG-GATES - Regimen: Daily Repeat
# Assay type: toxicity, organism-based, Sprague-Dawley
# Set-up: regimen Daily Repeat, gender Male, age 6 weeks
# condition.info: in vivo, po, 100 mg/kg, […], tissue Liver, route gavage, dose level Low, time 7 day
One number for each entry, in g.

molecule	unit.abbrev	LIVER
NC(N)=Nc1nc(CSCCC(N)=NS(N)(=O)=O)cs1	g	12.4
COC1=CC(=O)C[C@@H](C)[C@]12Oc1c(Cl)c(OC)cc(OC)c1C2=O	g	12.7
CCOC(=O)CCC(=O)O[C@H]1[C@H](O[C@@H]2[C@@H](C)[C@H](O[C@H]3C[C@@](C)(OC)[C@@H](O)[C@H](C)O3)[C@@H](C)C(=O)O[C@H](CC)[C@@](C)(O)[C@H](O)[C@@H](C)C(=O)[C@H](C)C[C@@]2(C)O)O[C@H](C)C[C@@H]1N(C)C [ERYTHROMYCIN ETHYLSUCCINATE]	g	11.1
COc1ccc2[nH]c([S+]([O-])Cc3ncc(C)c(OC)c3C)nc2c1 (stereo not given)	g	13.3

// switching to the query molecule
The measured LIVER associated with CCOc1ccc(NC(=O)CC(C)O)cc1 (stereo not given) reads 14.8

###

# Species on record: Rattus norvegicus
# measurement.protocol: Open TG-GATES - Regimen: Single
# Assay type: toxicity, organism-based, Sprague-Dawley
# Design: regimen Single, gender Male, age 6 weeks
# condition.info: in vivo, po, 30 mg/kg, 3 h, tissue Plasma, route gavage, dose level Middle
readout.name: K (meq/L)
Numbers only, in meq/L.

Field: example entries. Status: answers known.
smiles.repr	unit.abbrev	K
CN(C)CCCN1c2ccccc2CCc2ccccc21	meq/L	4
CN(C)CCN(Cc1cccs1)c1ccccn1	meq/L	4.4
CN(C)CCCN1c2ccccc2CCc2ccc(Cl)cc21	meq/L	4

Switching to the query record.
The reported K of the molecule `CC1=C(/C=C/C(C)=C/C=C/C(C)=C/CO)C(C)(C)CCC1` was 4.2

###

Could you please report measured GLC for the items listed next?
# Organism: Rattus norvegicus
# measurement.protocol: Open TG-GATES - Regimen: Daily Repeat
# Type: toxicity, organism-based, Sprague-Dawley
# Parameters: regimen Daily Repeat, gender Male, age 6 weeks
# condition.info: in vivo, po, 1000 mg/kg, […], tissue Plasma, route gavage, dose level High, time 28 day
Give bare numbers, in mg/dL.

Recorded GLC, per entry:
compound	GLC, mg/dL
COC1=CC(=O)C[C@@H](C)[C@]12Oc1c(Cl)c(OC)cc(OC)c1C2=O [GRISEOFULVIN]	234.6
CCOC(=O)CCC(=O)O[C@H]1[C@H](O[C@@H]2[C@@H](C)[C@H](O[C@H]3C[C@@](C)(OC)[C@@H](O)[C@H](C)O3)[C@@H](C)C(=O)O[C@H](CC)[C@@](C)(O)[C@H](O)[C@@H](C)C(=O)[C@H](C)C[C@@]2(C)O)O[C@H](C)C[C@@H]1N(C)C [ERYTHROMYCIN ETHYLSUCCINATE]	173

Now, please, on to the next compound.
Noted for CCOc1ccc(NC(=O)CC(C)O)cc1 (stereo not drawn) [BUCETIN] : its GLC reads 182.2
